MIC by entry:
system: Staphylococcus aureus; experiment: Antibacterial activity against methicillin-susceptible Staphylococcus aureus clinical isolate 339/09 after 18 hrs by twofold serial agar dilution technique; format: functional; conditions: clinical isolate 339/09, 18 h

smiles_code | bound_sign | MIC [µg/mL]
S=C(Nc1ccc(I)cc1)Nc1nc[nH]n1 | = | 50
Fc1ccc(NC(=S)Nc2nc[nH]n2)cc1 | = | 50
S=C(Nc1ccc(Br)cc1)Nc1nc[nH]n1 | = | 50
S=C(Nc1nc[nH]n1)Nc1ccccc1Br | = | 50
Fc1ccccc1NC(=S)Nc1nc[nH]n1 | > | 400
S=C(Nc1ccc(Cl)cc1)Nc1nc[nH]n1 | = | 25
Fc1cccc(NC(=S)Nc2nc[nH]n2)c1 | = | 12.5
S=C(Nc1ccccc1)Nc1nc[nH]n1 | = | 50
